Tested on: SiHa
Protocol summary: MTT antiproliferative assay, SiHa
Format: cell-based, human
Test parameters: 72 h, read-out: calculated IC50 value
Description: Gynecological cancer cell lines, including ovarian (A2780), cervical (HeLa), and breast cancer cell lines (MCF7, T47D, MDA-MB-231, and MDA-MB-361) were purchased from the European Collection of Authenticated Cell Cultures (ECACC, Salisbury, United Kingdom). […] The antiproliferative properties of the compounds were assessed by an MTT assay ([Mosmann, 1983]). […]
Measured attribute: IC50
Field: value (include unit after the number)

Qu. May I ask what IC50 has been recorded for N.N.[Cl][Pt][Cl] [CIS, cisplatin, reference compound] ?
Ans. 7.84 µM
